Target: cloned human 5-HT1A receptors (Homo sapiens, UniProt P08908)
Construct: expressed in transfected cells
Sequence (P08908 1-422): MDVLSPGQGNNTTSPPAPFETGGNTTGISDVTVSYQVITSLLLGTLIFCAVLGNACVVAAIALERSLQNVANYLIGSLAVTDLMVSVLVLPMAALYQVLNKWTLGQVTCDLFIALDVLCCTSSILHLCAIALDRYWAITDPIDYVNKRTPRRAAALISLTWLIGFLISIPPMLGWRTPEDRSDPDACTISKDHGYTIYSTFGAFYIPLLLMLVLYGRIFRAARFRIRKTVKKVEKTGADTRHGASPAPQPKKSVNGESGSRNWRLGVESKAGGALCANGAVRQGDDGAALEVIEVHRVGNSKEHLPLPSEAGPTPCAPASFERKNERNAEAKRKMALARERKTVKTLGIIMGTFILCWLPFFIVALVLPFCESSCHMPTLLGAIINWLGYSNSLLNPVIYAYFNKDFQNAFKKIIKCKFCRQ
Test: 35S-GTPγS binding assay, 5-HT1A function
Format: biochemical
Details: maximum stimulatory effect, in brackets after EC50; read-out: 5-HT1A Function GTPγS (Emax)
METRIC NAME: Emax (%)

Examples with answers:
>>> meas_value("COC(=O)c1ccc(F)c2c1CC(N(CCCCc1c[nH]c3ccc(F)cc13)C1CCC1)CO2 (stereo not drawn) [Compound 58]")
49
>>> meas_value("CCCN(CCCCc1c[nH]c2ccc(F)cc12)C1COc2c(C(N)=O)ccc(F)c2C1 (stereo not drawn) [Compound 124]")
41
>>> meas_value("COc1cccc2c1CC(N(CCCc1c[nH]c3ccc(F)cc13)C1CCCC1)CO2 (stereo not drawn) [Compound 39]")
100
>>> meas_value("CCN(CCCc1c[nH]c2ccc(F)cc12)C1COc2c(F)ccc(C(=O)NC)c2C1 (stereo not drawn) [Compound 89]")
62

1. COC(=O)c1cccc2c1CC(N(CCCc1c[nH]c3c(F)cc(F)cc13)C1CCC1)CO2 (stereo not drawn) [Compound 136]
2. CCN(CCCc1c[nH]c2ccc(Cl)cc12)C1COc2c(F)ccc(C(N)=O)c2C1 (stereo not drawn) [Compound 115]
Please indicate which item has the smaller measured Emax: 1 versus 2 # respond with the chosen item's label
2

The reported numbers originate from patent US20050032873A1.
